compounds and their reported TGI
- Test system: KM12 colon
- Experiment notes: NCI tumour cell line growth inhibition, 48 h
Record the value in µM, omitting the unit from your answer.

These recorded examples may help you get a feel for the data.
{"columns": ["Structure", "Measured on", "TGI (µM)"],
 "data": [
  ["CCc1ccc(Oc2nccc(-c3c(-c4ccc(F)cc4)ncn3C3CCNCC3)n2)cc1", "KM12 colon", 14.3],
  ["CC1=C(C(=O)Nc2cccc(C(F)(F)F)c2)C(c2ccccc2F)C(C(=O)Nc2cccc(C(F)(F)F)c2)=C(C)N1", "KM12 colon", 14.8]
]}

Let us examine a further case.
Quote KM12 colon TGI for entry N#Cc1ccc(N2Cc3cc(Cl)ccc3OC3=C2C(=O)N(Cc2ccc(F)cc2)C3=O)cc1 .
6.59

###

- Tested on: SK-MEL-2 melanoma
- Experiment notes: NCI tumour cell line growth inhibition, 48 h; in the data active = GI50 below about 0.43 µM; inactive = the rest
Would you mind answering with one of these outcomes? yes (active), no (inactive)

Previously resolved entries follow.
{"columns": ["Compound", "Measured on", "Label value"],
 "data": [
  ["O=[N+]([O-])c1ccc(Oc2cccc(C(F)(F)F)c2)c([N+](=O)[O-])c1", "SK-MEL-2 melanoma", "no"],
  ["O=C1c2ccccc2-c2c1c1c(O)cccc1n2CCCc1ccccc1", "SK-MEL-2 melanoma", "no"]
]}

Write down the call the test reported for this compound. Item: Cc1cc(C(=O)N2CCN(C)CC2)c2c(=O)n(-c3ccccc3)c(=O)n(CC(O)CN3CCN(c4ncccn4)CC3)c2n1 (centres undefined)
no

Write down the call the test reported for this compound. Item: COc1ccc(-c2nnc(Nc3nc(O)c(C4=c5cc(OC(F)(F)F)ccc5=NC4=O)s3)o2)cc1
no

Write down the call the test reported for this compound. Item: Cc1cc(NS(=O)(=O)c2ccc(NC(=O)COc3ccc(-c4cc5ccccc5[nH]4)cc3)cc2)no1
no

Write down the call the test reported for this compound. Item: COc1cc2c(cc1OCc1ccccc1)N=C[C@@H]1C[C@@H](F)CN1C2=O
yes

Write down the call the test reported for this compound. Item: CCCCCCCCCCCCNC(=O)[C@H]1CSC(c2cc(Br)cs2)N1 (some centres undefined)
no

Write down the call the test reported for this compound. Item: c1cc2ccc3cc2cc1CNCCOCCNCc1ccc2ccc(cc2c1)CNCCOCCNC3
no

Write down the call the test reported for this compound. Item: CCOP(=O)(CCN1CCN(CCCCCOc2cc3c(cc2OC)C(=O)N2CCC[C@H]2C=N3)CC1)OCC
no

###

- System: MCF7 breast
- Experiment notes: NCI tumour cell line growth inhibition, 48 h
Metric: TGI (µM)
Record the value in µM, omitting the unit from your answer.

These recorded examples may help you get a feel for the data.
{"columns": ["Compound", "Measured on", "Units of measure", "Observed result"],
 "data": [
  ["O=C(N/N=C/c1ccncc1)c1ccc(C(F)(F)F)nc1Nc1cccc(C(F)(F)F)c1", "MCF7 breast", "µM", 8.52],
  ["CCOC(=O)c1c(SC)nc(-c2ccc(Cl)cc2)sc1=N", "MCF7 breast", "µM", 83.4],
  ["Cc1ccc(C2NC(=S)N3C(c4ccc(C)cc4)NC(=S)N23)cc1 (stereo unspecified)", "MCF7 breast", "µM", 12.9]
]}

Let us examine a further case.
Provide one value: measured TGI of C[As](C)SCC(NC(=O)CCC(N)C(=O)O)C(=O)NCC(=O)O.Cl.c1ccncc1 (stereo unspecified)
1.14

###

- System: SF-539 CNS
- Experiment notes: NCI tumour cell line growth inhibition, 48 h
compounds and their reported log10(TGI)
Scale type: logarithmic (base 10). Underlying TGI unit: µM.

These recorded examples may help you get a feel for the data.
{"columns": ["Compound", "log10(TGI)"],
 "data": [
  ["CCc1ccc(Oc2nccc(-c3c(-c4ccc(F)cc4)ncn3C3CCNCC3)n2)cc1", 0.98],
  ["c1ccc(CNCCCNCCCCNCCCNCc2ccccc2)cc1", 0.57],
  ["[O-]/N=N\\c1on[n+](CCc2ccccc2)c1Cc1c(/N=N/[O-])on[n+]1CCc1ccccc1", 1.57],
  ["Cc1ccc(-c2c3c(N)nc(-c4ccncc4)nc3nc3c2c(C)nn3-c2ccccc2)cc1", 0.88],
  ["[CH3][Sn]([CH3])([CH3])[O]C(=O)C(O)c1ccccc1 (stereo not drawn)", 1.47]
]}

Provide one value: measured log10(TGI) of CS(=O)/C(C#N)=C\C=C\c1cccc(Cl)c1 (stereo not drawn)
0.88

Provide one value: measured log10(TGI) of NC(Cc1ccc(O)cc1)C(=O)N/N=C/c1ccc(N(CCCl)CCCl)cc1 (stereo not drawn)
1.83

Provide one value: measured log10(TGI) of CCCCCCCCCCCCNC(=O)[C@H]1CSC(c2cc(Br)cs2)N1 (stereo partly drawn)
0.27

Provide one value: measured log10(TGI) of Cc1ccn2c(-c3csc(Nc4cccc(O)c4)n3)c(C)nc2c1
0.57

Provide one value: measured log10(TGI) of N#Cc1c(N)nc2c(N=Nc3ccccc3)c(N)nn2c1Nc1ccccc1
1.67

Provide one value: measured log10(TGI) of N=C1/C(=C/c2ccccc2)C(=O)N=C2SC=NN12
1.95

Provide one value: measured log10(TGI) of COc1ccccc1N(C(C)=O)C1=C(Cl)C(=O)c2ccccc2C1=O
0.68

Provide one value: measured log10(TGI) of O=C(N/N=C/c1ccncc1)c1ccc(C(F)(F)F)nc1Nc1cccc(C(F)(F)F)c1
0.98

Provide one value: measured log10(TGI) of CC[C@@]1(OC(=O)C(N)CCC(=O)O)C(=O)OCc2c1cc1n(c2=O)Cc2cc3ccccc3nc2-1 (stereo partly drawn)
-1.12

Provide one value: measured log10(TGI) of Cc1ccc2c(n1)C(=O)C(Cl)=C(Nc1ccc(N3CCN(C)CC3)cc1)C2=O
0.51

Provide one value: measured log10(TGI) of COc1cc2c(cc1OCc1ccccc1)N=C[C@@H]1C[C@@H](F)CN1C2=O
0.67

Provide one value: measured log10(TGI) of CC(=O)N1N=C(c2ccc3ccccc3c2O)CC1c1ccc(Cl)cc1Cl (stereo not drawn)
1.70

Provide one value: measured log10(TGI) of S=C1NCCN1C(=S)NC1CCCCC1
1.85

###

compounds and their reported TGI
- Tested on: MCF7 breast
- Experiment notes: NCI tumour cell line growth inhibition, 48 h
Record the value in µM, omitting the unit from your answer.

These recorded examples may help you get a feel for the data.
{"columns": ["Compound", "Measured on", "Observed result"],
 "data": [
  ["C=C1C(=O)O[C@H]2[C@H]1CC/C(COC(=O)c1cccc3ccccc13)=C\\CC[C@@]1(C)O[C@@H]21", "MCF7 breast", 2.84],
  ["COc1cc(CCC(=O)O)c2cc3ccccc3cc2c1O", "MCF7 breast", 34.4],
  ["O=C1CC(NC2CC(=O)c3c(Br)sc(Br)c32)c2c(Br)sc(Br)c21 (stereo not given)", "MCF7 breast", 8.44],
  ["Nc1ncnc2c1nc(N)n2C1OC(CO)C(O)C1O (stereo not given)", "MCF7 breast", 10.4],
  ["COC(=O)c1c2c(c(C)[n+]([O-])c1C)C(=O)C=C(NCc1ccc(Br)cc1)C2=O", "MCF7 breast", 1.07]
]}

Provide one value: measured TGI of CCOC(=O)c1c(C(F)(F)F)n([O-])c2ccc(Cl)cc2[n+]1=O
4.24

Provide one value: measured TGI of CCc1ccc(Oc2nccc(-c3c(-c4ccc(F)cc4)ncn3C3CCNCC3)n2)cc1
8.37

###

- Test system: COLO 205 colon
- Experiment notes: NCI tumour cell line growth inhibition, 48 h
*1 amine or outer side, *2 acyl side, *3 side chain or, on linkers, in order; H or OH if unused. Where a SMILES comes first, the peptide text is derived from it. Bridges are numbered along the chain shown (N, C = ends). Roman numbers before positions name the chains, in order. X23 = CCCCCCCCCCCCCCC(=O)NC(CCCCN[*:2])C(=O)CN1CCCC1C(=O)[*:1]
compounds and their reported TGI
Record the value in µM, omitting the unit from your answer.

These recorded examples may help you get a feel for the data.
{"columns": ["Compound", "Units of measure", "TGI"],
 "data": [
  ["CCOP(=O)(CCN1CCN(CCCCCOc2cc3c(cc2OC)C(=O)N2CCC[C@H]2C=N3)CC1)OCC", "µM", 12.9],
  ["CCOC(=O)CCC(NC(=O)c1ccc(OCc2ccc3nc(OC)c(OC)nc3c2)cc1)C(=O)OCC (stereo unspecified)", "µM", 32.8]
]}

Provide one value: measured TGI of CCCCCCCCCCCCCCC(=O)NC(CCCCNC(=O)C1CCCN1C(=O)C(CCCCN)NC(=O)C(CCCCN)NC(=O)C(CCCCN)NC(=O)C(CCCNC(=N)N)NC(=O)C(CCCCN)NC(=O)C(N)C(C)C)C(=O)CN1CCCC1C(=O)NCC(=O)NC(Cc1ccccc1)C(=O)N1CCCC1C(=O)NC(CO)C(=O)NC(Cc1ccc(O)cc1)C(=O)NC(CCCCN)C(=O)NC(CC(C)C)C(=O)NC(CCCNC(=N)N)C(=O)N1CCCC1C(=O)NCC(N)=O (stereo unspecified) (I: GFPSYKLRPG-NH2 / II: H-VKRKKKP; linker I:N-II:C via X23; configuration not given here)
15.6

Provide one value: measured TGI of C/C(=C\CCc1ccsc1)CC/C=C(\C)CCCN1CCN(CCO)CC1
3.95

Data origin: PubChem BioAssay (NCI)
